Tested on: MARIMO
protocol-text: cell viability relative to vehicle control; higher = less cytotoxic;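 further: after 48 h exposure read by CellTiter-Glo luminescence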
assay-setup: 10 µM; SRSF2 genotype: SRSF2 P95H/wt
Where a name gives a salt, the structure may show the parent alone.
// returns Not fulfilled unless cell viability is strictly below 90%, in which case Fulfilled

Look over these answered cases.
- molecule: "Cc1ccc(-c2csc(NC(=O)c3ccccc3)n2)c(C)c1"
  class-label: "Fulfilled"
- molecule: "CC(=O)OC1CCC2C3CCc4cc(O)ccc4C3CCC12C (stereo not given)"
  class-label: "Fulfilled"
- molecule: "COc1cc(C(=O)N2CCC(N3CCN(C)CC3)CC2)ccc1Nc1ncc2c(n1)N(C)c1ccccc1C(=O)N2C"
  class-label: "Fulfilled"
- molecule: "Nc1nc(Nc2ccc(S(N)(=O)=O)cc2)nn1C(=O)c1c(F)cccc1F"
  class-label: "Fulfilled"
- molecule: "COC(=O)N[C@H](C(=O)N1CCC[C@H]1c1ncc(-c2ccc(-c3ccc(-c4cnc([C@@H]5CCCN5C(=O)[C@@H](NC(=O)OC)C(C)C)[nH]4)cc3)cc2)[nH]1)C(C)C [Daclatasvir Digydrochloride]"
  class-label: "Fulfilled"
- molecule: "CNC[C@H](O)[C@@H](O)[C@H](O)[C@H](O)CO.CNC[C@H](O)[C@@H](O)[C@H](O)[C@H](O)CO.O=C([O-])CN(CCN(CC(=O)[O-])CC(=O)O)CCN(CC(=O)[O-])CC(=O)O.[Gd+3] [Gadopentetate Dimeglumine]"
  class-label: "Not fulfilled"

[in] Determine if CC(NCCc1ccc(O)cc1)C(O)c1ccc(O)cc1 (stereo not given) [Ritodrine hydrochloride (Yutopar)] shows cell viability strictly lower than 90%.
[out] Not fulfilled

###

Tested on: K562
protocol-text: cell viability relative to vehicle control; higher = less cytotoxic
assay-setup: 10 µM; SRSF2 genotype: SRSF2 wt/wt
Structures can show the parent of a compound that is named as a salt.
measured-metric: cell viability (%)
Express it in %; write the number only.

As a guide, the following entries are already answered.
- molecule: "CCOC(C)OCCc1ccccc1 (configuration not stated)"
  recorded-measurement: 108
- molecule: "CSc1cccc(Nc2ncc3cc(-c4c(Cl)cccc4Cl)c(=O)n(C)c3n2)c1"
  recorded-measurement: 9.82
- molecule: "CC1=C(C/C=C(\\C)CCC[C@H](C)CCC[C@H](C)CCCC(C)C)C(=O)c2ccccc2C1=O"
  recorded-measurement: 93.7
- molecule: "N[C@@H](Cc1c[nH]c2ccc(O)cc12)C(=O)O [5-hydroxytryptophan (5-HTP)]"
  recorded-measurement: 94.2
- molecule: "O=C(NO)c1ccc(CC(=O)N(CCO)c2ccccc2)cc1"
  recorded-measurement: 86.2
- molecule: "N/N=c1\\[nH][nH]/c(=N\\N)c2ccccc12 [Dihydralazine sulphate]"
  recorded-measurement: 95.5

[in] Would you mind telling me what cell viability value was observed for CCOc1cc(N)c(Cl)cc1C(=O)NCC1CN(Cc2ccc(F)cc2)CCO1 (configuration not stated) [Mosapride citrate] ?
[out] 80

[in] Would you mind telling me what cell viability value was observed for COc1ccc(C(=O)CC2(O)C(=O)Nc3c(Cl)ccc(Cl)c32)cc1 (configuration not stated) ?
[out] 27.4

[in] Would you mind telling me what cell viability value was observed for CNC(=O)c1ccccc1Sc1ccc2c(/C=C/c3ccccn3)n[nH]c2c1 ?
[out] 14

[in] Would you mind telling me what cell viability value was observed for O=S(=O)(c1ccccc1)N(CC(F)(F)F)c1ccc(C(O)(C(F)(F)F)C(F)(F)F)cc1 ?
[out] 72.3

[in] Would you mind telling me what cell viability value was observed for C[C@H](CCC(=O)O)[C@H]1CC[C@H]2[C@@H]3[C@H](O)C[C@@H]4C[C@H](O)CC[C@]4(C)[C@H]3C[C@H](O)[C@]12C ?
[out] 100

[in] Would you mind telling me what cell viability value was observed for COc1cc2nccc(Oc3ccc(NC(=O)C4(C(=O)Nc5ccc(F)cc5)CC4)cc3)c2cc1OC ?
[out] 20.6

[in] Would you mind telling me what cell viability value was observed for O=C1CN(/N=C/c2ccc(-c3ccc([N+](=O)[O-])cc3)o2)C(=O)N1 [Dantrolene sodium hemiheptahydrate] ?
[out] 104

[in] Would you mind telling me what cell viability value was observed for Cc1ccc(-n2nc(C(C)(C)C)cc2NC(=O)NCc2cc(F)ccc2Oc2ccc3c(cnn3CCO)c2)cc1 ?
[out] 23.6

[in] Would you mind telling me what cell viability value was observed for C[C@H](Cn1cnc2c(N)ncnc21)OCP(=O)(O)O ?
[out] 98.5

[in] Would you mind telling me what cell viability value was observed for NC(C=O)C(O)C(O)C(O)CO (configuration not stated) [Glucosamine sulfate] ?
[out] 100

[in] Would you mind telling me what cell viability value was observed for CCCCCCC(O)C(=O)O (configuration not stated) [2-Hydroxycaprylic acid] ?
[out] 107

[in] Would you mind telling me what cell viability value was observed for COC(=O)c1ccc(O)c(O)c1 [Methyl protocatechuate] ?
[out] 105

[in] Would you mind telling me what cell viability value was observed for COCCc1ccc(OCC(O)CNC(C)C)cc1 (configuration not stated) [Metoprolol tartrate] ?
[out] 106

[in] Would you mind telling me what cell viability value was observed for COc1c(O)c(C)cc2c1C(=O)c1c(O)cccc1C2=O ?
[out] 107

[in] Would you mind telling me what cell viability value was observed for Cn1cnc([N+](=O)[O-])c1Sc1ncnc2[nH]cnc12 ?
[out] 34.8

[in] Would you mind telling me what cell viability value was observed for CCOc1cc(CC(=O)N[C@@H](CC(C)C)c2ccccc2N2CCCCC2)ccc1C(=O)O [Repaglinide] ?
[out] 97.6
